The reader will find reported IC50 values listed item by item below.
- experimental.target: recombinant human G9a protein (Homo sapiens, UniProt Q96KQ7)
- Construct: purchased BPS Bioscience Inc. #51001
- Sequence (Q96KQ7 785-1210 limits assumed): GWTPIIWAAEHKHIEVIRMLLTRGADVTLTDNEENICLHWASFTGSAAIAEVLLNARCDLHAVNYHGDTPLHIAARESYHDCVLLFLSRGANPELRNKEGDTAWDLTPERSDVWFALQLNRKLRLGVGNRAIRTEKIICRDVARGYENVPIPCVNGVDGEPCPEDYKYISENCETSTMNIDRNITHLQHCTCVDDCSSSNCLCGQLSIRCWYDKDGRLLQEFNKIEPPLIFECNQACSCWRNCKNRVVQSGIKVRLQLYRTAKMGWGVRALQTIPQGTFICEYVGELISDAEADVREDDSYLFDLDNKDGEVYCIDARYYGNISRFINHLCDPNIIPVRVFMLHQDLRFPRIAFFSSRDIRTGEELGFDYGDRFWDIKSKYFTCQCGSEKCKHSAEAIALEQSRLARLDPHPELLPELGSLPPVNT
- protocol: G9a inhibitory activity test (ALPHA)
- Format: biochemical
- cond: read-out: Inhibitory activity (G9a IC50)

Incoming: Provide one value: measured IC50 of CCCCC(NC(=O)c1[nH]c2c(c1C)C(=O)CC(C)(C)C2)C(=O)Nc1ccc(C)cc1CC (stereo not shown) [Example 14-2]
Outgoing: < 0.05 µM

Incoming: Please supply the value of reported IC50 for the item Cc1c(C(=O)NC(C(=O)Nc2ccc(OC3CCN(C)CC3)nc2)c2ccc(Cl)cc2)[nH]c2c1C(=O)CC(C)(C)C2 (stereo not shown) [Example 6-29]
Outgoing: ≥ 0.2 µM

Incoming: Please look at this molecule and report its IC50: Cc1cc(C)c(NC(=O)C(CCC2CC2)NC(=O)c2[nH]c3c(c2C)C(=O)CC(C)(C)C3)cn1 (stereo not shown) [Example 6-14]
Outgoing: 0.05 to 0.2 µM
